Reference source for all entries: patent US20160060347A1

System under test: T1, human CXCR2 (human, UniProt P25025 1-360)
T1 construct: Expressed on Flp-In CHO cells (FACS, Fab-ZAP, ADCC, CDC) or on bought PathHunter CHO cells (beta-arrestin assay); the construct in the PathHunter cells is not described; also called chemokine receptor CXCR2; CXCR2 CHO Flp-In cells
T1 sequence: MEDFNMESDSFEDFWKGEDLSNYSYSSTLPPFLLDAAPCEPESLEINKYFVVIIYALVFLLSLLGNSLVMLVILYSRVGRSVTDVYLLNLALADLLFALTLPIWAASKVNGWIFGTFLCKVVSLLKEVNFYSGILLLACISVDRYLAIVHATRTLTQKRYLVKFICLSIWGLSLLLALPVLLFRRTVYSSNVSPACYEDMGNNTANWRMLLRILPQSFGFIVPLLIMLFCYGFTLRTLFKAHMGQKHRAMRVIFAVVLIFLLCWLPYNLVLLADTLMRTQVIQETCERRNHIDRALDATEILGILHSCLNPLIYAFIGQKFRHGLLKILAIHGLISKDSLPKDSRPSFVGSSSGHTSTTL
Assay text: FACS, CXCR2 CHO Flp-In cells, Fab
Measurement name: EC50 (nM)
I only need the number, in nM, no unit after it.

Item CX2-Mab #6 (Fab format) (Fab, V domains shown) VH: EVQLLESGGGLVQPGGSLRLSCAASGFTFSSYTMSWVRQAPGKGLEWVSAIHSSGSSTYYADSVKGRFTISRDNSKNTLYLQMNSLRAEDTAVYYCARVPAYYGFDHWGQGTLVTVSS VL: DIELTQPPSVSVSPGQTASITCSGDSLGAFYVHWYQQKPGQAPVLVIYRTNNRPSGIPERFSGSNSGNTATLTISGTQAEDEADYYCASYASRNRVFGGGTKLTVLG has what recorded EC50? 195

Entry CX2-Mab #4 (Fab format) (Fab, V domains shown) VH: EVQLLESGGGLVQPGGSLRLSCAASGFTFSSNGMSWVRQAPGKGLEWVSAISSSGSKTYYADSVKGRFTISRDNSKNTLYLQMNSLRAEDTAVYYCARGYGFDVWGQGTLVTVSS VL: DIVLTQPPSVSGAPGQRVTISCSGSSSNIGVNIVNWYQQLPGTAPKLLIYSTSNRPSGVPDRFSGSKSGTSASLAITGLQAEDEADYYCATRDGISKSVVFGGGTKLTVLG : reported EC50 = ? 136

Which EC50 value belongs to CX2-Mab #1 (Fab format) (Fab, V domains shown) VH: QVQLVQSGAEVKKPGSSVKVSCKASGGTFSSYAISWVRQAPGQGLEWMGGIIPIVGEAKYAQKFQGRVTITADESTSTAYMELSSLRSEDTAVYYCARDSSGYDGYYAFAYWGQGTQVTVSS VL: DIVLTQPPSVSGAPGQRGTISCSGSSSNIGSSSVNWYQQLPGTAPKLLIYRNNQRPSGVPDRFSGSKSGTSASLAITGLQAEDEADYYCGATDFSANQVVFGGGTKLTVLG ? 365

Query: EC50; subject: CX2-Mab #3 (Fab format) (Fab, V domains shown) VH: EVQLLESGGGLVQPGGSLRLSCAASGFTFSSYWMSWVRQAPGKGLEWVSVISYSGSETFYADSVKGRFTISRDNSKNTLYLQMNSLRAEDTAVYYCARGRVGYAFDYWGQGTLVTVSS VL: DIVLTQPPSVSGAPGQRVTISCSGSSSNIGVNYVNWYQQLPGTAPKLLIYSNNQRPSGVPDRFSGSKSGTSASLAITGLQAEDEADYYCQSRASGFYSVVFGGGTKLTVLG 105
